- Tested Target: BRDT(2) (Homo sapiens, UniProt Q58F21)
- Construct: the second as compared with the first bromodomain of these BRDs
- Run Description: Protein stability shift assay (thermal shift), BRDT(2)
- Format: binding
- Condition: 10 μM ligand
Quantity Kind: Thermal shift (ΔTm obs) BRDT(2)
Please state the value as a number alone, without comment.

{"Molecule": "Cc1nnc2n1-c1sccc1C(c1ccccc1)=NC2(C)C [MDCO-3770]", "Tested Target": "BRDT(2) (Homo sapiens, UniProt Q58F21)", "Thermal shift (ΔTm obs) BRDT(2)": 0.3}
{"Molecule": "Cc1nnc2n1-c1sccc1C(c1ccccc1)=NC2 [MDCO-3760]", "Tested Target": "BRDT(2) (Homo sapiens, UniProt Q58F21)", "Thermal shift (ΔTm obs) BRDT(2)": 3.2}

# input Indicate the recorded Thermal shift (ΔTm obs) BRDT(2) value for this molecule: COc1cc(OC)c2c(=O)[nH]c(-c3cc(C)c(OCCO)c(C)c3)nc2c1 [RVX-208, reference compound]
# output 4.0

# input # return recorded Thermal shift (ΔTm obs) BRDT(2) for input Cc1nnc2n1-c1sccc1C(c1ccc3c(c1)OCO3)=NC2 [MDCO-3783]
# output 2.4

Source of measurements: paper PMC4147775
